Each recorded value in this set is attributed to paper PMC10671849.

# Assay Notes: Cytotoxicity MTT assay on PMA-differentiated THP-1 macrophages
# Assay type: cell-based
# Condition Label: human
Property Label: CC50 at 72 h (µM)

>>> readout_value("N=C(N)c1ccc(OCCCCCOc2ccc(C(=N)N)cc2)cc1 [Pentamidine, pentamidine, reference compound]")
37.7
